Source: patent US20060089499A1

# MEASUREMENT PROTOCOL: physchem
# CONDITIONS USED: logP
The label is met for chromatographic logP below 4 and not met for chromatographic logP equal to or exceeding 4.

>>> classification("N#Cc1cnn2c(N3CCOCC3)c(-c3c(F)cccc3Cl)c(Cl)nc12")
"met"
>>> classification("CC(C)CN(C)c1c(-c2ccccc2Cl)c(Cl)nc2c(C#N)cnn12")
"not met"
>>> classification("CC(C)CNc1c(-c2ccc(F)cc2F)c(Cl)nc2c(C#N)cnn12")
"met"
>>> classification("CC(C)Nc1c(-c2c(F)cc(F)cc2F)c(Cl)nc2c(C#N)cnn12")
"met"
>>> classification("Fc1cc(F)c(-c2c(Cl)nc3c(Cl)cnn3c2N2CCC(F)(F)CC2)c(F)c1")
"not met"
>>> classification("CC1CCN(c2c(-c3ccccc3Cl)c(Cl)nc3c(C#N)cnn23)CC1")
"not met"
>>> classification("C=C(C)CN(C)c1c(-c2c(F)cc(F)cc2F)c(Cl)nc2c(C#N)cnn12")
"not met"
>>> classification("C[C@H](Nc1c(-c2c(F)cccc2Cl)c(Cl)nc2c(C#N)cnn12)C(F)(F)F")
"met"
>>> classification("N#Cc1cnn2c(NCC3CC3)c(-c3c(F)cccc3Cl)c(Cl)nc12")
"met"
>>> classification("CC(Nc1c(-c2ccc(F)cc2Cl)c(Cl)nc2c(C=O)cnn12)C(C)(C)C (centres unmarked)")
"not met"
>>> classification("N#Cc1cnn2c(N3CCC(F)CC3)c(-c3c(F)cccc3Cl)c(Cl)nc12")
"met"
>>> classification("CC(C)CN(C)c1c(-c2c(F)cccc2Cl)c(Cl)nc2c(C#N)cnn12")
"not met"
>>> classification("C[C@H](Nc1c(-c2ccccc2F)c(Cl)nc2c(C#N)cnn12)C(F)(F)F")
"met"
>>> classification("CO/N=C\\c1cnn2c(NC(C)C(C)(C)C)c(-c3ccc(F)cc3Cl)c(Cl)nc12 (centres unmarked)")
"not met"
>>> classification("C=C(C)CN(CC)c1c(-c2c(F)cccc2Cl)c(Cl)nc2c(C#N)cnn12")
"not met"
>>> classification("CC(C)CN(C)c1c(-c2c(F)cc(F)cc2F)c(Cl)nc2c(C#N)cnn12")
"not met"

====

# MEASUREMENT PROTOCOL: physchem
# CONDITIONS USED: logP
Below, each of the compounds is paired with its reported chromatographic logP value.
MEASURED ENDPOINT: chromatographic logP

>>> value_reported("N#Cc1cnn2c(NCC3CC3)c(-c3c(F)cc(F)cc3F)c(Cl)nc12 [compound 54]")
3.63
>>> value_reported("CC1CCN(c2c(-c3c(F)cccc3Cl)c(Cl)nc3c(C#N)cnn23)CC1 [compound 28]")
4.77
>>> value_reported("N#Cc1cnn2c(N3CCCCC3)c(-c3c(F)cccc3Cl)c(Cl)nc12 [compound 21]")
4.32
>>> value_reported("N#Cc1cnn2c(N3CCC(F)(F)CC3)c(-c3c(F)cc(F)cc3F)c(Cl)nc12 [compound 230]")
3.81
>>> value_reported("C=C(C)CN(CC)c1c(-c2c(F)cc(F)cc2F)c(Cl)nc2c(C#N)cnn12 [compound 6]")
4.6
>>> value_reported("C[C@H](Nc1c(-c2c(F)cc(F)cc2F)c(Cl)nc2c(C#N)cnn12)C(F)(F)F [compound 7]")
3.69
